Molecular target: human CD33 G260A (human, UniProt P20138 18-364)
Sequence (P20138 18-364 G260A limits assumed): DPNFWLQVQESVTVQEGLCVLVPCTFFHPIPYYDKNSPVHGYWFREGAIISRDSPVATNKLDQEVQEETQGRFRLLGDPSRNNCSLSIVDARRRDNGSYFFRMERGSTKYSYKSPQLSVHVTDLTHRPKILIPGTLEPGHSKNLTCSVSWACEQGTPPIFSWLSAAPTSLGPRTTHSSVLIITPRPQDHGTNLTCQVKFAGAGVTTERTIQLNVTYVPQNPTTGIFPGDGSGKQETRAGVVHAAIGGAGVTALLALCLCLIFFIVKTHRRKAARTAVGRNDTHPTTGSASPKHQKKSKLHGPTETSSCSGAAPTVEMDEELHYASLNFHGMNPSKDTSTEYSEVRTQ
Assay: alanine scan, flow cytometry, HEK293-T;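 further: antibody binding to each alanine-substituted CD33 mutant expressed transiently in HEK293-T, read as fluorescence minus background, mean of duplicates, relative to wild-type CD33 set as 100%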
quantity: Mean % WT Binding
Don't forget the unit after the value.

The examples below pair each entry with its known result.
INSERT INTO results (binder, obs_value) VALUES
  ('Refmab #2 (antibody, V domains shown, The alanine scan used IgG or Fab) VH: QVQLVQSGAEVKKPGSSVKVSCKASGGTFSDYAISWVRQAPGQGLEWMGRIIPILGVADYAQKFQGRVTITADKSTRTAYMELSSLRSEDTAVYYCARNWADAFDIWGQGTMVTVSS VL: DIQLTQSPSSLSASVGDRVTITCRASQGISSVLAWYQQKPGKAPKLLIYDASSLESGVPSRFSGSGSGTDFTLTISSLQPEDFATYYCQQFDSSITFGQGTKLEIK', '105 % WT binding'),
  ('Refmab #4 (antibody, V domains shown, The alanine scan used IgG or Fab) VH: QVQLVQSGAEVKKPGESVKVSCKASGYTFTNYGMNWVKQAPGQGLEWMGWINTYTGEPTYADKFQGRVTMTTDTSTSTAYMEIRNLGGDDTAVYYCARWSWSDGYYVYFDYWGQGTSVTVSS VL: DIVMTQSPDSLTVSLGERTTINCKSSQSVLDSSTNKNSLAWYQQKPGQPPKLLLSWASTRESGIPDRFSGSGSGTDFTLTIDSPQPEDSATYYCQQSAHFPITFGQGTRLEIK', '106 % WT binding'),
  ('Refmab #3 (antibody, V domains shown, The alanine scan used IgG or Fab) VH: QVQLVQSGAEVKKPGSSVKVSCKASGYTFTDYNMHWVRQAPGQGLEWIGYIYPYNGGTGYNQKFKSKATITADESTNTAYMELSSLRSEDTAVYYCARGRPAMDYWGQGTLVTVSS VL: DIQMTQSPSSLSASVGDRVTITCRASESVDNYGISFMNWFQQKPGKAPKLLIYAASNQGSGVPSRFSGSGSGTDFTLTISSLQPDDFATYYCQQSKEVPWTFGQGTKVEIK', '140 % WT binding');

In the following, a different binder is considered.
Provide measured Mean % WT Binding value, entry: Refmab #1 (antibody, V domains shown, The alanine scan used IgG or Fab; also called hP67.6) VH: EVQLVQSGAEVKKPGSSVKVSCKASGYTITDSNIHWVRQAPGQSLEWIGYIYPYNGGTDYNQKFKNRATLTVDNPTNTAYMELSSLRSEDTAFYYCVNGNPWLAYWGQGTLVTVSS VL: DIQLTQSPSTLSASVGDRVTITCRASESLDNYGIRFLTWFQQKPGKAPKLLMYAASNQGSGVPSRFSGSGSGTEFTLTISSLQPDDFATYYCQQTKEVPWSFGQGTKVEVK
81.9 % WT binding
